experimental details: protein stability index of a GFP-peptide fusion (GPS, HEK-293T) (PSI 1-6); higher = more stable;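 also: 24-mer peptide tiles fused after GFP, lentivirally expressed, FACS-sorted into six equal bins by GFP/DsRed ratio, decoded by Illumina sequencing, PSI is the read-weighted mean bin number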
experimental context: treatment: MLN4924 1 uM, 8 h; c terminus: a fixed tail appended
outcome measure: protein stability index
Form rule: numeric answer, no unit written next to it.

Past entries and their recorded results:
# seq text, assay result
records = [
    ("NIEEIDEIPLVIKYKKAVGLKLKQ [WDR88]", 2.91),
    ("GGMQALGLHLTDPSQRLVQNCLWT [CTNNB1]", 2.1),
    ("TVKFANNPSQKTGQALLTHLYQSS [ELAVL3]", 3.03),
    ("IRNSRPLVKKVEEDEAGGRFVAFS [UFD1]", 4.05),
    ("MGQHISLAPIHKLEEALYEYQPLQ [MNAT1]", 3),
]

EIKLVSDVTADSKVLEALKLKGAE [PLD5] yielded protein stability index of 4.34

FLDLLSVFSDTATPDIKSHYAFRI [CIB1] yielded protein stability index of 2.85

IFCLHGGLSPSIDTLDHIRALDRL [PPP2CA] yielded protein stability index of 2.21
